// data source = patent US8022225B2

# study-system: human Edg-1(S1P1) (Homo sapiens)
# Construct: expressed in transfected cells; host or cells: HEK-293
# Sequence (P21453 whole entry): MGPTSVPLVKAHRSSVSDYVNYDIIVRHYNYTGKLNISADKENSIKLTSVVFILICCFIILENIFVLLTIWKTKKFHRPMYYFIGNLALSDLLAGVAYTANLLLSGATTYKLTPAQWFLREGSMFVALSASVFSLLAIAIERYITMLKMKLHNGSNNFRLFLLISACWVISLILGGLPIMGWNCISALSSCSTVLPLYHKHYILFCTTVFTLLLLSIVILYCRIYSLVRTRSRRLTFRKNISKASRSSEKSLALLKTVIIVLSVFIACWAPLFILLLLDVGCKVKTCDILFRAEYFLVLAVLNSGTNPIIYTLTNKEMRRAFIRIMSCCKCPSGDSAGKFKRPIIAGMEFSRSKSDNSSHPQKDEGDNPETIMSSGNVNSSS
# experiment-description: Membrane system binding test: inhibition of [33P]-S1P binding to the membrane fraction of Edg-1(S1P1) gene transferred HEK-293 cells
# test-context: 10 μM compound; [33P]-S1P 0.1 nM; membrane fraction of Edg-1(S1P1) gene transferred HEK-293 cells; read-out: Membrane system binding test % inhibition (10 μM)
Reported inhibition at 10 µM values are given for each entry in this list.
metric: inhibition at 10 µM (%)

>>> reported_measurement("CCn1c(SCc2ccc(C#N)cc2)nnc1[C@@H](C)NS(=O)(=O)c1ccc(Cl)cc1")
91
>>> reported_measurement("CCn1c(SCc2cccc(C#N)c2)nnc1[C@@H](C)NS(=O)(=O)c1ccc(Cl)cc1")
74.6
>>> reported_measurement("CCn1c(OC)nnc1[C@@H](C)NS(=O)(=O)c1ccc(C)c(Cl)c1")
94.4
>>> reported_measurement("CCn1c(SCc2ccc(F)cc2)nnc1[C@@H](C)NS(=O)(=O)c1ccc(Cl)cc1")
45.1
>>> reported_measurement("CCn1c(SCCCC#Cc2ccccc2)nnc1[C@@H](C)NS(=O)(=O)c1ccc(Cl)cc1")
100
>>> reported_measurement("CCOc1nnc([C@@H](C)NS(=O)(=O)c2ccc(Cl)c(Cl)c2)n1CC")
87.2
>>> reported_measurement("CCn1c(OC2CCCCC2)nnc1[C@@H](C)NS(=O)(=O)c1ccc(Cl)cc1")
103
>>> reported_measurement("CCn1c(SCC(F)F)nnc1[C@@H](C)NS(=O)(=O)c1ccc(Cl)cc1")
100
>>> reported_measurement("CCOc1nnc([C@@H](C)NS(=O)(=O)c2cccc(Cl)c2)n1CC")
81.6
